Test system: Bacillus cereus
protocol summary: Antimicrobial activity against Bacillus cereus by NCCLS M7-A6 method
Type: functional

{"columns": ["chemical structure", "measured target", "output unit", "inequality sign", "MIC"],
 "data": [
  ["COc1ccc(O/C=C/c2cc(O)cc(OC)c2)cc1", "Bacillus cereus", "µg/mL", "=", 64],
  ["COc1cc(O)cc(/C=C/Oc2cccc(C)c2)c1", "Bacillus cereus", "µg/mL", "=", 32],
  ["COc1cc(O)cc(/C=C/Sc2ccccc2)c1", "Bacillus cereus", "µg/mL", "=", 16],
  ["COc1cc(/C=C/Oc2cccc(C)c2)cc(OC)c1", "Bacillus cereus", "µg/mL", ">", 512],
  ["COc1cc(O)cc(/C=C/Oc2ccccc2C)c1", "Bacillus cereus", "µg/mL", "=", 64],
  ["COc1cc(/C=C/c2cccs2)cc(OC)c1", "Bacillus cereus", "µg/mL", ">", 512],
  ["COc1cc(OC)cc(O/C=C/c2ccccc2)c1", "Bacillus cereus", "µg/mL", ">", 512],
  ["COc1cc(O)cc(/C=C/c2cccs2)c1", "Bacillus cereus", "µg/mL", "=", 32],
  ["COc1cc(/C=C/Oc2ccccc2C)cc(OC)c1", "Bacillus cereus", "µg/mL", ">", 512],
  ["COc1cc(/C=C/Oc2ccc(C)cc2)cc(OC)c1", "Bacillus cereus", "µg/mL", ">", 512],
  ["COc1cc(O)cc(/C=C/c2ccsc2)c1", "Bacillus cereus", "µg/mL", "=", 32],
  ["COc1cc(/C=C/Oc2cccc(OC)c2)cc(OC)c1", "Bacillus cereus", "µg/mL", ">", 512],
  ["COc1ccc(O/C=C/c2cc(OC)cc(OC)c2)cc1", "Bacillus cereus", "µg/mL", ">", 512],
  ["COc1cc(O)cc(/C=C/Oc2ccccc2)c1", "Bacillus cereus", "µg/mL", "=", 32],
  ["COc1cc(/C=C/Sc2ccccc2)cc(OC)c1", "Bacillus cereus", "µg/mL", ">", 512]
]}

* * *

Reported values of MIC for individual entries
Test system: Mycolicibacterium smegmatis
protocol summary: Antimicrobial activity against Mycobacterium smegmatis by NCCLS M7-A6 method
Assay type: functional
endpoint: MIC (µg/mL)

{"columns": ["molecule", "output unit", "inequality sign", "observed"],
 "data": [
  ["COc1cc(O)cc(O/C=C/c2ccccc2)c1", "µg/mL", "=", 128],
  ["COc1ccc(O/C=C/c2cc(OC)cc(OC)c2)cc1", "µg/mL", ">", 512],
  ["COc1cc(O)cc(/C=C/c2ccccc2)c1 [PINOSYLVIN METHYL ETHER]", "µg/mL", "=", 64],
  ["COc1cc(/C=C/c2ccccc2)cc(OC)c1 [3,5-O-DIMETHYLPINOSYLVIN]", "µg/mL", ">", 512],
  ["COc1cc(/C=C/c2cccs2)cc(OC)c1", "µg/mL", ">", 512],
  ["COc1cc(/C=C/Sc2ccccc2)cc(OC)c1", "µg/mL", ">", 512],
  ["COc1ccc(O/C=C/c2cc(O)cc(OC)c2)cc1", "µg/mL", "=", 128],
  ["COc1cc(O)cc(/C=C/Sc2ccccc2)c1", "µg/mL", "=", 128],
  ["COc1cc(O)cc(/C=C/c2ccsc2)c1", "µg/mL", "=", 64],
  ["COc1cc(/C=C/Oc2ccccc2C)cc(OC)c1", "µg/mL", ">", 512],
  ["COc1cc(O)cc(/C=C/Oc2ccccc2C)c1", "µg/mL", ">", 128],
  ["COc1cc(OC)cc(O/C=C/c2ccccc2)c1", "µg/mL", ">", 512],
  ["COc1cc(/C=C/Oc2ccccc2)cc(OC)c1", "µg/mL", ">", 512],
  ["COc1cc(O)cc(/C=C/Oc2cccc(C)c2)c1", "µg/mL", "=", 64],
  ["COc1cc(/C=C/Oc2cccc(OC)c2)cc(OC)c1", "µg/mL", ">", 512],
  ["COc1cc(/C=C/Oc2ccc(C)cc2)cc(OC)c1", "µg/mL", ">", 512],
  ["COc1cc(/C=C/Oc2cccc(C)c2)cc(OC)c1", "µg/mL", ">", 512],
  ["COc1cc(O)cc(/C=C/Oc2cccc(OC)c2)c1", "µg/mL", "=", 128],
  ["COc1cc(O)cc(/C=C/c2cccs2)c1", "µg/mL", "=", 128],
  ["COc1cc(O)cc(/C=C/Oc2ccc(C)cc2)c1", "µg/mL", ">", 128],
  ["COc1cc(O)cc(/C=C/Oc2ccccc2)c1", "µg/mL", "=", 128]
]}

* * *

Reported values of MIC for individual entries
Test system: Bacillus cereus
protocol summary: Antimicrobial activity against Bacillus cereus by NCCLS M7-A6 method
Type: functional
endpoint: MIC

{"columns": ["chemical structure", "observed"],
 "data": [
  ["COc1cc(/C=C/c2ccccc2)cc(OC)c1", "> 512 mg/L"],
  ["COc1cc(O)cc(/C=C/Oc2cccc(OC)c2)c1", "64 mg/L"],
  ["COc1cc(O)cc(/C=C/c2ccccc2)c1", "16 mg/L"],
  ["COc1cc(/C=C/Oc2ccccc2)cc(OC)c1", "> 512 mg/L"],
  ["COc1cc(O)cc(O/C=C/c2ccccc2)c1", "64 mg/L"],
  ["COc1cc(O)cc(/C=C/Oc2ccc(C)cc2)c1", "64 mg/L"]
]}
